# Assay remarks: Viability qHTS for spleen associated tyrosine kinase inhibitor (SYKi) naive MV4-11 cells (AID 1963823); also: nearly all actives have a fitted effect of over 40% in size
# Conditions used: MV4-11 AML viability, CellTiter-Glo luminescence, 72 h; series mostly up to 45 µM
Records with an inconclusive call do not appear. The source made the active and inactive calls. Calls follow the shape of the dose curve; as a rule, active = well fitted cell-killing curve with a large enough effect; inconclusive = small, poorly fitted or top-dose-only effect, or effect the other way; inactive = no such curve, though single readings can be large or run the other way. Where a SMILES comes first, the peptide text is derived from it.
Outcomes: class 1 for active, class 0 for inactive

Compound	Assigned label
C=C1CC[C@@H]2[C@](C)(CO)[C@H](O)CC[C@@]2(C)[C@@H]1CC(O)C1=CCOC1=O (stereo partly specified)	class 1
COC(=O)c1ccc(=O)c2nc3/c(=C/O)c(O)cc(=O)c3[nH]c12	class 0
O=C(NCC(=O)N1CCCC1)Nc1ccc2ccccc2c1	class 1
O=C(O[C@@H]1O[C@H](CO)[C@@H](O)[C@H](O)[C@H]1O)c1ccccc1	class 0
CC1=CC(=O)CC(C)(C)C1CCC(C)OC1OC(COC(=O)c2cc(O)c(O)c(O)c2)C(O)C(O)C1O (stereo unspecified)	class 0
C=C[C@]1(C)C=C2CCC3C(C)(CCC[C@@]3(C)C(=O)O)C2CC1 (stereo partly specified)	class 0
CC(=O)Nc1cccc(O)c1	class 0
N#Cc1cc(-c2n[nH]c(-c3ccncc3)n2)ccn1	class 0
O=c1[nH]c(=O)c2ccccc2o1	class 0
C/C=C/C1=CC2=C(CO1)C(=O)C(C)(OC(=O)c1c(C)cc(O)cc1OC)C(O)C2 (stereo unspecified)	class 1
CCC1CC2C(C)=CC3CCCCC3C2(C)C2(OC(=O)C(C)(O)OC2=O)O1 (stereo unspecified)	class 1
Cc1cc(C(=O)N2Cc3cnn(C)c3Nc3ccccc32)ccc1CNC(=O)N1CCC[C@H]1C(=S)N1CCCN(C)CC1	class 0
CNC[C@H](O)c1cccc(O)c1	class 1
CC(C)C[C@@H]1NC(=O)[C@@H](Cc2ccccc2)NC(=O)C(CCCCCC(=O)C2CO2)NC(=O)[C@@H]2CCCCN2C1=O (stereo partly specified)	class 1
CC(=O)O[C@@](C)(C(=O)/C=C/C(C)(C)O)[C@H]1[C@H](O)C[C@@]2(C)[C@@H]3CC=C4[C@@H](C=C(O)C(=O)C4(C)C)[C@]3(C)C(=O)C[C@]12C	class 1
O=C1NC(=O)C(c2ccccc2)(c2ccccc2)N1	class 0
O=c1cc(N2CCOCC2)oc2c(-c3ccccc3)cccc12	class 1
OC/C=C/c1ccc(O[C@@H]2O[C@H](CO)[C@@H](O)[C@H](O)[C@H]2O)cc1	class 0
NC1CCC(Nc2cc(-c3cccc(NCc4cccc(F)c4)n3)c(Cl)cn2)CC1 (stereo unspecified)	class 1
CN1C[C@@H]2C[C@H]1CN2c1cc2c(cc1F)c(=O)c(C(=O)O)cn2C1CC1	class 0
CCCCOc1ccc(-c2cncc(C(=O)NCc3cccnc3N3CCOCC3)c2)cc1Cl	class 1
COc1nccnc1NS(=O)(=O)c1ccc(N)cc1	class 0
COC(=O)C1=CO[C@@H](O[C@@H]2O[C@H](CO[C@@H]3O[C@H](COC(=O)/C=C/c4ccc(O)cc4)[C@@H](O)[C@H](O)[C@H]3O)[C@@H](O)[C@H](O)[C@H]2O)[C@@H]2C(CO)=CC[C@H]12	class 0
NCC1CCC(C(=O)Oc2ccc(CCC(=O)O)cc2)CC1 (stereo unspecified)	class 0
CC(=O)N[C@@H](CO)C(=O)N[C@@H](CC(=O)O)C(=O)N[C@@H](CCCCN)C(=O)N1CCC[C@H]1C(=O)O (Ac-SDKP-OH)	class 0
OC[C@@H](O)[C@@H](O)[C@H](O)[C@H](O)CO	class 0
